Reference for the values: patent US20210113501A1

This listing pairs compounds with measured RBC.
measurement-protocol: Study 1 hematology (complete blood count)
Format: in vivo, human
condition-summary: Before
experimental-endpoint: RBC

| compound | experimental-endpoint | reading |
| --- | --- | --- |
| CC(C)(O)CC(=O)[O-].CC(C)(O)CC(=O)[O-].[Ca+2] [CaHMB, calcium β-hydroxy-β-methylbutryate, reference compound] | RBC | 4.3 ×10^6/µL |
| CC(C)(O)CC(=O)O [HMB-Acid Gel Sublingual, 3-hydroxy-3-methylbutyric acid] | RBC | 4.2 ×10^6/µL |
| CC(C)(O)CC(=O)O [HMB-Acid Gel Swallow, 3-hydroxy-3-methylbutyric acid] | RBC | 4.2 ×10^6/µL |
